- MEASUREMENT_NOTES: Drug uptake in C57BL/6J mouse liver mitochondria at 5 uM in presence of FCCP by UPLC analysis
- Format: ADME
OBSERVABLE: Drug uptake

- SAMPLE_SMILES: "CS(=O)(=O)[O-].O=C(/C=C/c1ccc(O)c(O)c1)NCCCCCCCCCC[P+](c1ccccc1)(c1ccccc1)c1ccccc1"
  MEASURED_VALUE: "Active"
- SAMPLE_SMILES: "CS(=O)(=O)[O-].O=C(/C=C/c1ccc(O)c(O)c1)NCCCCCCCCCC[n+]1ccc2ccccc2c1"
  MEASURED_VALUE: "Active"
- SAMPLE_SMILES: "CS(=O)(=O)[O-].Cc1cc[n+](CCCCCCCCCCNC(=O)/C=C/c2ccc(O)c(O)c2)cc1"
  MEASURED_VALUE: "Active"
- SAMPLE_SMILES: "CS(=O)(=O)[O-].Cn1cc[n+](CCCCCCCCCCNC(=O)/C=C/c2ccc(O)c(O)c2)c1"
  MEASURED_VALUE: "Active"
